A collection of compounds and their measured MIC
# System: Streptococcus pyogenes
# PROTOCOL NOTES: Antibacterial activity against Streptococcus pyogenes MTCC 442 assessed as growth inhibition after 24 to 48 hr by NCCLS broth microdilution method
# Type: functional
ENDPOINT NAME: MIC (µg/mL)

| COMPOUND | TEST VALUE |
| --- | --- |
| C=CCn1c(=O)c(C2C(C(=O)OC(C)C)=C(N)OC3=C2C(=O)c2ccccc2C3=O)cc2cc(OC)ccc21 (stereo not drawn) | 200 |
| C=CCn1c(=O)c(C2C3=C(CCCC3=O)OC3=C2C(=O)c2ccccc2C3=O)cc2cc(OC)ccc21 (stereo not drawn) | 500 |
| O=C(O)c1cn(C2CC2)c2cc(N3CCNCC3)c(F)cc2c1=O | 50 |
